- protocol_description: AP1 Signaling Pathway (AID 357);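 note: ME-180 reporter cells stimulated with EGF at its EC50 level; % is set by controls: 0 for no effect and ±100 for the full control effect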
- condition_info: ME-180 (cervical carcinoma) AP-1-bla reporter, EGF-induced, beta-lactamase ratio, 5 h; at 7.69 µM (top of the series) unless noted
Inconclusive results are not listed. The source made the active and inactive calls. Calls come from the whole dose curve; as a rule, active = well fitted curve in either direction with a large enough effect (not every such curve was filed as active); inconclusive = small, poorly fitted or top-dose-only effect, or another doubt; inactive = flat fitted curve, though single readings scatter.
quantity_kind: activity change, negative = inhibition

INSERT INTO measurements (smiles_record, quantity_kind, experimental_result) VALUES
  ('COc1ccc(CNc2ccnc(-c3ccc4c(c3)OCO4)n2)c(OC)c1', 'activity change, negative = inhibition', '-15% (inactive)'),
  ('COc1ncc2nc(-c3cc(F)cc(F)c3)c(=O)n(CCC#N)c2n1', 'activity change, negative = inhibition', '2.61% (inactive)'),
  ('N#Cc1cccc(-c2nc(N3CCNCC3)c3ccccc3n2)c1', 'activity change, negative = inhibition', '5.75% (inactive)'),
  ('O=c1c(-c2ccc(F)cc2)nc2cnc(Oc3ccccc3)nc2n1C1CC1', 'activity change, negative = inhibition', '2.54% (inactive)'),
  ('Cn1cccc1C(=O)N1CCC2(CC1)CCN(c1ccc(-c3ccccc3)cc1)CC2', 'activity change, negative = inhibition', '-19.9% (inactive)'),
  ('COc1cccc(Cn2c(=O)c(C)nc3cnc(Nc4ccccc4)nc32)c1', 'activity change, negative = inhibition', '-15.3% (inactive)'),
  ('CC(C)CN1CC[C@@]2(CCCN(S(=O)(=O)c3ccccc3)C2)C1', 'activity change, negative = inhibition', '1.83% (inactive)'),
  ('COc1ccc2[nH]cc(CCNc3ncncc3-c3c(C)noc3C)c2c1', 'activity change, negative = inhibition', '-11.4% (inactive)'),
  ('Cc1noc(C)c1C(=O)N1CCC2(CCN(Cc3ccc(C#N)cc3)CC2)CC1', 'activity change, negative = inhibition', '22% (inactive)'),
  ('COc1ccc(C(=O)N2CCC3(CC2)CN(C(=O)Nc2ccccc2)C3)cc1', 'activity change, negative = inhibition', '-1.19% (inactive)'),
  ('CC(=O)N1CCC2(CCN(Cc3cc(C(F)(F)F)cc(C(F)(F)F)c3)CC2)CC1', 'activity change, negative = inhibition', '-20.5% (inactive)'),
  ('NCCn1c(=O)c(CCc2ccccc2)nc2cncnc21', 'activity change, negative = inhibition', '-1.99% (inactive)');

Hey, just so you know, these numbers are from PubChem BioAssay (NCATS).
